Each recorded value in this set is attributed to patent US20250171562A1.

# Target Entity: T1, recombinant human IgE (human, UniProt P01854-1 1-428)
# T1 construct: made in-house (ALK); preloaded on immobilised FcεRIα in the displacement ELISA
# T1 sequence (P01854 other isoform, or with tags, fused parts or gaps): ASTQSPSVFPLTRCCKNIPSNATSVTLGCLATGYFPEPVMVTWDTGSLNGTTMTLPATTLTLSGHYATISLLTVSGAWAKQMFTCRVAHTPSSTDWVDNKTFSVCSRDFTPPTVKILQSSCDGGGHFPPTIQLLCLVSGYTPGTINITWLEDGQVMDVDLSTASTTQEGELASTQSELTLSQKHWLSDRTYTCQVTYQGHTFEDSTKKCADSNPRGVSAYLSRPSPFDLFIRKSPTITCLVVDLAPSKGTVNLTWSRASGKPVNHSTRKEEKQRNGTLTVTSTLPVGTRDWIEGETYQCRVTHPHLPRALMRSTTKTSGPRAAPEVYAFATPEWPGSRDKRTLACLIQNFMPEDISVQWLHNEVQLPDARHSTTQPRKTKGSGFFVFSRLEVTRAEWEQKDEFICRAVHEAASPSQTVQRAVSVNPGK
# Measurement Notes: IgE-FcεRIα displacement ELISA
pEC50: −log10 of the molar value.
Property Label: pEC50

Binder: B1A1(G4S)3 (bispecific antibody) QVQLQESGGGLVQTGGSLRLSCAVHGRTFSNTGMGWFRQAPGNERQFVAIISPSGTSTYYADSVKGRFTISRDPAKNTVYLQMNSLKMDDTAVYYCAASYGSNWSTLRHQRRNEYDAWGQGTQVAVSGGGGSGGGGSGGGGSEVQLLESGGGLVQPGGSLRLSCAASGFTFGNYDMAWVRQAPGKRPEWVSSIDTGGDITHYADSVKGRFTISRDNAKNTLYLQMNSLRPEDTAVYWCATDEEYALGPNEFDYYGQGTLVTVSS
pEC50: 8.28

(A) sdAb D2 (VHH) VHH: DVQLQESGGGLVEAGGSLRLSCVASGRTFSGWSMGWFRQAPGKEREFVAAISWVGSWIGGTVYSNSVKGRFTISRDNARTTVYLQMNSLKPEDTAVYFCAAANSETPRIFASEYDYWGQGTQVTVS
(B) sdAb B1 (VHH) VHH: QVQLQESGGGLVQTGGSLRLSCAVHGRTFSNTGMGWFRQAPGNERQFVAIISPSGTSTYYADSVKGRFTISRDPAKNTVYLQMNSLKMDDTAVYYCAASYGSNWSTLRHQRRNEYDAWGQGTQVAVS
Which has the smaller recorded pEC50, A or B ? Your answer should be the label of the entry you select. A
(A: 5.00, B: 6.70)
